ASSAY NOTES: In-vivo pharmacokinetic parameters in SD rats
TEST PARAMETERS: male, rat, plasma, 5 mg/kg, PO, 5 mpk
MEASUREMENT LABEL: Tmax
Field: value (include unit after the number)

Given the entry "C[C@H](C(=O)N[C@H](CO)c1cccc(Cl)c1)N1Cc2ccc(-c3nc(NC4CCOCC4)ncc3F)c(F)c2C1=O" , report its measured Tmax.
18 min

Further cases:
Given the entry "COc1cc(F)cc([C@@H](CO)NC(=O)[C@@H](C)N2Cc3ccc(-c4nc(NC5CCOCC5)ncc4F)c(F)c3C2=O)c1" , report its measured Tmax.
18 min

* * *

Below, each entry is listed with its recorded IC50.
TEST SYSTEM: CYP1A2 (Homo sapiens, UniProt P05177)
Sequence (P05177 1-516): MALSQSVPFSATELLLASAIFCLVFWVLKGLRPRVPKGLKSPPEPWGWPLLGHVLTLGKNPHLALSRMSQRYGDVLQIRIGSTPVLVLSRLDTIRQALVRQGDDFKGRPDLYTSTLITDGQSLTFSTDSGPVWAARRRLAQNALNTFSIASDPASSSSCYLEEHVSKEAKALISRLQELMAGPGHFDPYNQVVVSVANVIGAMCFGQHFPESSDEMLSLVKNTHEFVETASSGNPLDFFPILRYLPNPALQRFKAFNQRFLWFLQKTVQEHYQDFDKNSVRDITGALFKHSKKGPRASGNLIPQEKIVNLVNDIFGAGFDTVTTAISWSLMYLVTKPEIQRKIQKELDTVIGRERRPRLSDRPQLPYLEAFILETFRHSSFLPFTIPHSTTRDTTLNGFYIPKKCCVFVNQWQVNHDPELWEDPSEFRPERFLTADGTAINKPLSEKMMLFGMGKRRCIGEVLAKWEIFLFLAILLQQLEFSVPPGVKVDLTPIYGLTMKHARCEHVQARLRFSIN
ASSAY NOTES: Direct inhibition test (DI test) in human liver microsomes, CYP1A2
TEST PARAMETERS: microsomes

Given the entry Cc1cccc([C@@H](CO)NC(=O)[C@@H](C)N2Cc3ccc(-c4nc(NC5CCOCC5)ncc4F)c(F)c3C2=O)c1 [Embodiment 31] , report its measured IC50.
> 10 µM

Please give the result for COc1cc(F)cc([C@@H](CO)NC(=O)[C@@H](C)N2Cc3ccc(-c4nc(NC5CCOCC5)ncc4Cl)c(F)c3C2=O)c1 [Embodiment 33] too.
> 10 µM

* * *

ASSAY NOTES: In-vivo pharmacokinetic parameters in SD rats
TEST PARAMETERS: male, rat, plasma, 5 mg/kg, PO, 5 mpk
Below, each entry is listed with its recorded AUC(0-inf).

Given the entry COc1cc(F)cc([C@@H](CO)NC(=O)[C@@H](C)N2Cc3ccc(-c4nc(NC5CCOCC5)ncc4F)c(F)c3C2=O)c1 [Embodiment 40] , report its measured AUC(0-inf).
0.436 µM·h

Shifting focus to the molecule that follows.
Given the entry C[C@H](C(=O)N[C@H](CO)c1cccc(Cl)c1)N1Cc2ccc(-c3nc(NC4CCOCC4)ncc3F)c(F)c2C1=O [Embodiment 37] , report its measured AUC(0-inf).
0.452 µM·h

* * *

TEST SYSTEM: CYP2C8 (Homo sapiens)
Sequence (P11712 whole entry): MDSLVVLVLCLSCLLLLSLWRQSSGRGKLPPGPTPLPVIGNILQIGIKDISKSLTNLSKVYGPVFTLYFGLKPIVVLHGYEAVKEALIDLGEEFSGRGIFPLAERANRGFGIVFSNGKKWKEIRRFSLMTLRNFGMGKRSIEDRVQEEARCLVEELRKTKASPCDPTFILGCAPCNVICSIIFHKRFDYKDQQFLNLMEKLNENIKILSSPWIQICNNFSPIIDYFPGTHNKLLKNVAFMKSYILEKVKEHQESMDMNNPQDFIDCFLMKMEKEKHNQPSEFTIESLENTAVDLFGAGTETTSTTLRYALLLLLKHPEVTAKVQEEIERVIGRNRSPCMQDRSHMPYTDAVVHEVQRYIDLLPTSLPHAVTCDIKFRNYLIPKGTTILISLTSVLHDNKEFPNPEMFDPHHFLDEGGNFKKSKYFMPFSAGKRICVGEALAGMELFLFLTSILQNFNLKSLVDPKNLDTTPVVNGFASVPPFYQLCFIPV
ASSAY NOTES: Direct inhibition test (DI test) in human liver microsomes, CYP2C8
Assay type: in vitro ADME
MEASUREMENT LABEL: IC50 at 20 min

Solved cases (2 shown):
Short answer please: IC50 at 20 min, CYP2C8 (Homo sapiens), entry COc1cc(F)cc([C@@H](CO)NC(=O)[C@@H](C)N2Cc3ccc(-c4nc(NC5CCOC5)ncc4F)c(F)c3C2=O)c1 (stereo partly drawn)
> 10 µM

Please give the result for "COc1cc(F)cc([C@@H](CO)NC(=O)[C@@H](C)N2Cc3ccc(-c4nc(NC5CCOCC5)ncc4Cl)nc3C2=O)c1" too.
> 10 µM

Shifting focus to the molecule that follows.
Short answer please: IC50 at 20 min, CYP2C8 (Homo sapiens), entry "COc1cc(F)cc([C@@H](CO)NC(=O)[C@@H](C)N2Cc3ccc(-c4nc(NC5CCC(F)(F)CC5)ncc4F)c(F)c3C2=O)c1"
> 10 µM
